Overview of reported GI50 across a group of compounds:
# Tested on: HOP-62
# assayProcedure: NCI tumour cell line growth inhibition, 48 h
The source made the active and inactive calls. Cut-off read from the data, not from the text of the source: active = GI50 up to about 1.1 µM and inactive = higher.
measuredMetric: GI50

                                   compound               result
0  CC1=NN(c2cccc(Cl)c2)C2(SCC(=O)N2c2nc3ccccc3s2)/C1=C\c1cccs1 (stereo not given)   28.2 µM (inactive)
1      CNC(=O)NS(=O)(=O)c1ccc(C)cc1.NS(=O)O  > 100 µM (inactive)
2  Cc1cc2sc(C)[n+](CCCOS(=O)(=O)[O-])c2cc1C  > 100 µM (inactive)
3                 COc1ccc(-c2cn3ccsc3n2)cc1  > 100 µM (inactive)
4      CCOC(=O)Cn1c(=O)[nH]c(=O)c2[nH]cnc21  > 100 µM (inactive)
5  CCc1cc(C)cc2[n+]1CC=C2.[O-][Cl+3]([O-])([O-])[O-]   18.7 µM (inactive)
6  O=[N+]([O-])c1cccc(C(O)/C(=N/Nc2ccccc2)C2Nc3ccc([N+](=O)[O-])cc3N=C2O)c1 (stereo not given)  > 100 µM (inactive)
7  CCOP(=O)(CC1CC(O)(CNc2cc(Cl)nc(N)n2)C1)OCC (stereo not given)  > 100 µM (inactive)
8  CCCCCCCCCC1CC(=O)OC2=C1C(=O)CCC2 (stereo not given)  > 100 µM (inactive)
9  Clc1cc(OCc2nn3c(Cc4ccccc4)nnc3s2)c(Cl)cc1OCc1nn2c(Cc3ccccc3)nnc2s1   33.3 µM (inactive)

----------
# Tested on: UACC-62
# assayProcedure: NCI tumour cell line growth inhibition, 48 h
Activity calls are given as the source filed them. No stated cut-off is given here; in the data, active = GI50 up to about 1.1 µM and inactive = higher.
measuredMetric: GI50

In [3]: df
Out[3]:
                                   molecule               result
0           Cc1ccc(S(=O)(=O)N/N=C/C(C)C)cc1  > 100 µM (inactive)
1  Cc1cc2sc(C)[n+](CCCOS(=O)(=O)[O-])c2cc1C  > 100 µM (inactive)
2  O=[N+]([O-])c1ccc(C2=Nc3ccccc3[S+]([O-])C(c3ccccc3)C2)cc1 (stereo not drawn)   13.6 µM (inactive)
3      O=c1oc2ccc3ccccc3c2cc1-c1nc2ccccc2s1  > 100 µM (inactive)
4                 CCCCN/C(=N/C#N)NCc1ccccc1  > 100 µM (inactive)
5       COc1ccc(/C=C/c2ccnc3ccccc23)c(OC)c1   5.16 µM (inactive)
6         O=C(N/N=C/c1ccco1)c1cc(I)cc(I)c1O   16.6 µM (inactive)
7  CC1=CC(=O)C(=O)C2=C1OC1(C2)C(C)CCC2C3(C)CCC(O)C(C)(C)C3CCC21C (stereo not drawn)   15.8 µM (inactive)

----------
Overview of reported GI50 across a group of compounds:
# System: CCRF-CEM
# assayProcedure: NCI tumour cell line growth inhibition, 48 h
The source made the active and inactive calls. Cut-off read from the data, not from the text of the source: active = GI50 up to about 1.1 µM and inactive = higher.
measuredMetric: GI50

compound	result
Cc1ccc(S(=O)(=O)NC(=O)NNc2ccc(F)cc2)cc1	> 100 µM (inactive)
Nc1c(S(=O)(=O)O)cc(S(=O)(=O)O)c2ccc(/N=N/c3ccc(/C=C/c4ccc(/N=N/c5ccc6c(S(=O)(=O)O)cc(S(=O)(=O)O)c(N)c6c5O)cc4S(=O)(=O)O)c(S(=O)(=O)O)c3)c(O)c12	> 100 µM (inactive)
NC(=O)NC(=O)CCC(NS(=O)(=O)c1ccccc1)C(=O)NC(N)=O (centres undefined)	> 100 µM (inactive)
O=C1CCCCCC1CC(Sc1ccccc1)Sc1ccccc1 (centres undefined)	25.2 µM (inactive)

----------
# System: SK-OV-3
# assayProcedure: NCI tumour cell line growth inhibition, 48 h
Active and inactive are the calls of the source. No stated cut-off is given here; in the data, active = GI50 up to about 1.1 µM and inactive = higher.
measuredMetric: GI50

compound	measuredMetric	result
COC(=O)C1=C(C)C(=O)C2(CCCCCC2C(=O)OC)C1 (configuration not stated)	GI50	> 100 µM (inactive)
O=C1c2ccccc2NC(c2cc(Cl)cc(Cl)c2O)N1CCc1ccccn1 (configuration not stated)	GI50	> 100 µM (inactive)
Cc1nn(-c2ccccc2)c2nc3c(c(C)nn3-c3ccccc3)c(-c3ccc(C(F)(F)F)cc3)c12	GI50	> 100 µM (inactive)
CCC(NC(C)c1ccccc1)C(=O)c1ccc(OCc2ccccc2)c(OCc2ccccc2)c1 (configuration not stated)	GI50	> 100 µM (inactive)
Nc1nc(S)nc(C(=O)Nc2ccc(Cl)c(Cl)c2)c1-c1ccc(Cl)cc1	GI50	> 100 µM (inactive)
CC1=C(SCCO)C(=O)c2ccccc2C1=O	GI50	16 µM (inactive)
COc1ccc(C(=O)c2ccc(-n3c4ccccc4c4ccc5c(c43)C(=O)C=CC5=O)cc2)cc1	GI50	13.7 µM (inactive)
CCN(CC)CCC1CCCCN1CC(=O)N1c2ccccc2NC(=O)CC1C (configuration not stated)	GI50	> 100 µM (inactive)
Nc1nc(SCc2ccccn2)c2ncn(C3CCCC3)c2n1	GI50	> 100 µM (inactive)
O=C1c2ccccc2C(=O)N1C/C=N/NS(=O)(=O)c1ccc(Br)cc1	GI50	> 100 µM (inactive)
CC(C)c1cccc(C(C)C)c1NC(=O)/C(CC(=O)CC(c1ccccc1)c1c(O)c2ccccc2oc1=O)=N/O (configuration not stated)	GI50	> 100 µM (inactive)
COc1cccc(-c2nc(-c3cnccn3)n(C3OC(CO)C(O)C3O)n2)c1 (configuration not stated)	GI50	> 100 µM (inactive)
CCCCN/C(=N/C#N)NCc1ccccc1	GI50	> 100 µM (inactive)
O=C(O)[C@H](c1ccccc1)[C@@H](C(=O)O)c1ccccc1	GI50	> 100 µM (inactive)
C=C(C)[C@H]1C=C[C@@H](OC(=O)c2cccnc2)[C@@]23CO[C@@](C)([C@H](OC(=O)c4cccnc4)[C@@]4(OC(C)=O)C[C@H](C)[C@H](OCCC)[C@@H]4[C@H]2OC(C)=O)[C@H]13	GI50	> 15 µM (inactive)
NC1CC2NC3CCCCC3NC2CC1N (configuration not stated)	GI50	28.4 µM (inactive)
COC(=O)CC(=O)OC1C[C@@H]2CCC3C(C)(C)CCC[C@]3(C)C23CC[C@@]1(C)C3 (some centres not stated)	GI50	24.5 µM (inactive)
CCCCOCN/C(N)=N/C#N	GI50	> 100 µM (inactive)
CO[C@@H]1[C@H](O)CC[C@]2(CO2)[C@H]1[C@@]1(C)O[C@@H]1CC=C(C)C	GI50	> 200 µM (inactive)
CC(C)C(C)C(O)C(O)C(C)C1CCC2C3COC(=O)C4CC(O)C(O)CC4(C)C3CCC12C (configuration not stated)	GI50	> 100 µM (inactive)
Brc1ccc2c(-c3nc(-c4c[nH]c5ccc(Br)cc45)cs3)c[nH]c2c1	GI50	15.4 µM (inactive)
N=C(N)NCCNC(=N)N	GI50	> 100 µM (inactive)
CN(C)/C=N/C1CCC(C(C)(C)C)CC1 (configuration not stated)	GI50	21.3 µM (inactive)
CCOC(=O)CCc1c(C)c2c(O)cc(O)cc2oc1=O	GI50	> 100 µM (inactive)
O=[N+]([O-])c1ccc(C2=Nc3ccccc3[S+]([O-])C(c3ccccc3)C2)cc1 (configuration not stated)	GI50	31.9 µM (inactive)
CC(=O)/N=C1\N/C(=C/c2cc([N+](=O)[O-])ccc2O)CN1C	GI50	> 100 µM (inactive)
O=Cc1ccc(-c2nccc3c2[nH]c2ccccc23)o1	GI50	97.7 µM (inactive)
Cc1cccc(C)c1NC(=S)NC=C(C(N)=O)C(N)=O	GI50	> 100 µM (inactive)
N#C/C(=C1\OC(=O)C(c2ccc(Br)cc2)=C1O)c1ccc(Br)cc1	GI50	18.5 µM (inactive)
CCCN(CCC)C(=O)c1nc(N)nc(-c2ccc(OC)cc2)c1-c1ccc(OC)cc1	GI50	> 100 µM (inactive)
Cc1c2cccc-2c2cc(O)c3ccccc3c2n1-c1ccc(N(C)C)cc1	GI50	15.8 µM (inactive)
O=C(CC(=O)Nc1ccccc1O)Nc1ccccc1O	GI50	> 100 µM (inactive)
O=C(Nc1nnc(S)[nH]1)C(=O)C(C(=O)c1ccc2ccccc2c1)C1OC(=O)c2ccccc21 (configuration not stated)	GI50	23.4 µM (inactive)
CC(=O)c1c(O)ccc2c1c1c(n2C)C(=O)c2ccccc2C1=O	GI50	2.84 µM (inactive)
CS(=O)(=O)OCCN1CCN(C(=O)c2cccc3c(Nc4ccc(S(N)(=O)=O)cc4)c4ccccc4nc23)CC1	GI50	> 100 µM (inactive)
O=[N+]([O-])c1cccc(C(O)/C(=N/Nc2ccccc2)C2Nc3ccc([N+](=O)[O-])cc3N=C2O)c1 (configuration not stated)	GI50	> 100 µM (inactive)
O=C(c1ccccc1)c1ccc2[nH]c(-c3c(Cl)c(Cl)c(Cl)c(Cl)c3C(=O)Nc3ccco3)nc2c1	GI50	> 100 µM (inactive)
Cn1c(=O)c2c(ncn2CCCCOc2ccc3c(c2)[n+]([O-])nc(N)[n+]3[O-])n(C)c1=O	GI50	30.3 µM (inactive)
Cn1cnc(C(N)=[Se])c1N	GI50	1.25 µM (inactive)
CCN(CC)Cc1cc(/N=N\c2c(O)ccc3c(/N=N\c4ccc(O)c(CN(CC)CC)c4)c(O)ccc23)ccc1O	GI50	2.77 µM (inactive)
FC(F)(F)P1C2C=CC(CC2)C1(F)F (configuration not stated)	GI50	> 100 µM (inactive)
COc1ccc2c(c1)OC[C@@H]1c3cc4c(cc3O[C@H]21)OCO4	GI50	> 100 µM (inactive)
